# IC50 measurements, system: Phospholipase D2 (Homo sapiens)
Field: numeric (nM). Do not append units.

> print(dat)
                                 smilescode  reportedmetric  valuereported
1  O=C(NCCN1CCC2(CC1)C(=O)NCN2c1ccc(Cl)cc1)c1ccc2ccccc2c1            IC50            655

Moving on to another compound below.
Dear colleague, I am looking for the recorded IC50 of the following compound: O=C(NCCN1CCC2(CC1)C(=O)NCN2c1ccc(F)c(F)c1)c1cc2cc(F)ccc2[nH]1
100

====

testTarget: Phospholipase D1 (Homo sapiens)
Sequence (Q13393 whole entry): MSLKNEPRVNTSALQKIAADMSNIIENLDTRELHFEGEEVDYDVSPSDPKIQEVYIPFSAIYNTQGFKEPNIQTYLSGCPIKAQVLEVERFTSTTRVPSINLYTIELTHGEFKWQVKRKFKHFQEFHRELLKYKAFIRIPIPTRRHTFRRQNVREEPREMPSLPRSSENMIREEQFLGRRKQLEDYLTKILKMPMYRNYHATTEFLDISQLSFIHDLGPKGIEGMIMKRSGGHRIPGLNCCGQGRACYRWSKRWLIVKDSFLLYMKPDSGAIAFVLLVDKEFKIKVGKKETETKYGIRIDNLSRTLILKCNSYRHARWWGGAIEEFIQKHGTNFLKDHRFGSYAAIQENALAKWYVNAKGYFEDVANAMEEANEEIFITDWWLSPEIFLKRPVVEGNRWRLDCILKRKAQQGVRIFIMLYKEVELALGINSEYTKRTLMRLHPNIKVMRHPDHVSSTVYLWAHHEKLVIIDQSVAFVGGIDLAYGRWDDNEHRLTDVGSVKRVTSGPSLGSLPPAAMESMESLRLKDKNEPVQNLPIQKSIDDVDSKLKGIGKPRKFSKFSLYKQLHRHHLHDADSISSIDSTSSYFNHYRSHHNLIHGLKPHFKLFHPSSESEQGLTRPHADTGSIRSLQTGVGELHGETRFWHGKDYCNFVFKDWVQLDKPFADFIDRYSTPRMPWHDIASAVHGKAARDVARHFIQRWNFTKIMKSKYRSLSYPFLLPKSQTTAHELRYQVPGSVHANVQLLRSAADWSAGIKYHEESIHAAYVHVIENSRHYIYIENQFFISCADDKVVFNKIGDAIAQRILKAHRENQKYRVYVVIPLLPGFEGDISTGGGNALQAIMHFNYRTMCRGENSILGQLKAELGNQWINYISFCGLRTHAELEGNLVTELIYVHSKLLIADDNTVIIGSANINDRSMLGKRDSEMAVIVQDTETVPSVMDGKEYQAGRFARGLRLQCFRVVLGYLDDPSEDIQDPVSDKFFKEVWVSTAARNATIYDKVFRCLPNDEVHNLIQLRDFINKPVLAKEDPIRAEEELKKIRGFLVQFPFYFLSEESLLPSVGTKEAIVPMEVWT
pIC50: −log10 of the molar value.
Rule: pIC50 under 6 gives label 0, otherwise label 1.

> print(dat)
                                 smilescode                       testtarget  grouplabel
1  O=C(NCCN1CCC2(CC1)C(=O)NCN2c1ccc(Br)cc1)c1ccc(F)cc1  Phospholipase D1 (Homo sapiens)     label 0
2  O=C(NCCN1CCC2(CC1)C(=O)NCN2c1ccc(F)cc1)c1cnc2ccccc2c1  Phospholipase D1 (Homo sapiens)     label 0
3  O=C(NCCN1CCC2(CC1)C(=O)NCN2c1ccc(F)c(F)c1)c1cnc2ccccc2c1  Phospholipase D1 (Homo sapiens)     label 0
4  O=C(NCCN1CCC2(CC1)C(=O)NCN2c1cccc(F)c1)c1cnc2ccccc2c1  Phospholipase D1 (Homo sapiens)     label 0
5  O=C(NCCN1CCC2(CC1)C(=O)NCN2c1ccc(F)c(F)c1)c1cc2cc(F)ccc2[nH]1  Phospholipase D1 (Homo sapiens)     label 1

Check the entry O=C(NCCN1CCC2(CC1)C(=O)NCN2c1ccc(Br)cc1)c1ccc2ccccc2c1 : does pIC50 equal or exceed 6?
label 0

Now consider O=C(NCCN1CCC2(CC1)C(=O)NCN2c1ccc(Cl)cc1)c1cnc2ccccc2c1 .
label 0

Now consider O=C(NCCN1CCC2(CC1)C(=O)NCN2c1ccc(Cl)cc1)c1ccc(F)cc1 .
label 0

Now consider O=C(NCCN1CCC2(CC1)C(=O)NCN2c1cccc(Cl)c1)c1ccc(F)cc1 .
label 0

Now consider O=C(NCCN1CCC2(CC1)C(=O)NCN2c1ccc(Cl)cc1)c1ccc2ccccc2c1 .
label 0

Now consider O=C(NCCN1CCC2(CC1)C(=O)NCN2c1ccc(Br)cc1)c1cc2cc(F)ccc2[nH]1 .
label 0

Now consider O=C(NCCN1CCC2(CC1)C(=O)NCN2c1cccc(F)c1)c1cc2cc(F)ccc2[nH]1 .
label 1

Now consider O=C(NCCN1CCC2(CC1)C(=O)NCN2c1ccc(F)cc1)c1ccc2ccccc2c1 .
label 0

Now consider C[C@@H](CN1CCC2(CC1)C(=O)NCN2c1cccc(F)c1)NC(=O)c1ccc2ccccc2c1 .
label 1

Now consider O=C(NCCN1CCC2(CC1)C(=O)NCN2c1cccc(Cl)c1)c1cc2cc(F)ccc2[nH]1 .
label 1

Now consider O=C(NCCN1CCC2(CC1)C(=O)NCN2c1ccc(Cl)cc1)c1cc2cc(F)ccc2[nH]1 .
label 1

Now consider O=C(NCCN1CCC2(CC1)C(=O)NCN2c1ccc(Br)cc1)c1cnc2ccccc2c1 .
label 0

Now consider O=C(NCCN1CCC2(CC1)C(=O)NCN2c1ccc(F)cc1)c1cc2cc(F)ccc2[nH]1 .
label 1

Now consider O=C(NCCN1CCC2(CC1)C(=O)NCN2c1ccc(F)cc1)c1ccc(F)cc1 .
label 0

Now consider O=C(NCCN1CCC2(CC1)C(=O)NCN2c1ccc(F)c(F)c1)c1ccc(F)cc1 .
label 0

====

# pIC50 measurements, system: Phospholipase D2 (Homo sapiens, UniProt O14939)
# Sequence (O14939 whole entry): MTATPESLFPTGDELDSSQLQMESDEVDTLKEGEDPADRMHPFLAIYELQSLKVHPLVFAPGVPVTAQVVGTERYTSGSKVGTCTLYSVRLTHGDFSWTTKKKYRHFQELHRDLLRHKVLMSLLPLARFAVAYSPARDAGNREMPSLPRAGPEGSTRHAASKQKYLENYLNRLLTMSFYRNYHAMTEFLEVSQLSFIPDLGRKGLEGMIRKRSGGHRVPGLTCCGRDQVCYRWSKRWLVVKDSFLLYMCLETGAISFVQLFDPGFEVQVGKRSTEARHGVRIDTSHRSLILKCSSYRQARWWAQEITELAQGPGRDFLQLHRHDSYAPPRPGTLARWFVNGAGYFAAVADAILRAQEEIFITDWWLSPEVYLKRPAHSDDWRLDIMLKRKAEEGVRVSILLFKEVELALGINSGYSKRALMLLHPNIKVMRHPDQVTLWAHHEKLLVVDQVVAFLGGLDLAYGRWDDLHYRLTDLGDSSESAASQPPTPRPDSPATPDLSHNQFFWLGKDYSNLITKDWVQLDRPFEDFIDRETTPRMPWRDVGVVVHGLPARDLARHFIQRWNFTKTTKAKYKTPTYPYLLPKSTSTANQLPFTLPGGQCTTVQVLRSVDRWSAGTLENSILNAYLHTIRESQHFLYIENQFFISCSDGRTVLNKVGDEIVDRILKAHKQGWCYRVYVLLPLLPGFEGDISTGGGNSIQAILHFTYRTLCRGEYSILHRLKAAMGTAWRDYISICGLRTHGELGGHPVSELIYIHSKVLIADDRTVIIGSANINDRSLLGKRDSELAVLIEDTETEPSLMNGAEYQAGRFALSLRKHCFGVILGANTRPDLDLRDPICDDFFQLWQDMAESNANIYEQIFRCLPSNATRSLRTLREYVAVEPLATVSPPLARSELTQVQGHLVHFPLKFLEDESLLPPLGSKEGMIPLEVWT
Scale: pIC50 equals -log10([C]), with [C] in mol/L.

Use these answered entries as a reference point.
> print(dat)
                                 smilescode  valuereported
1  O=C(NCCN1CCC2(CC1)C(=O)NCN2c1ccc(Cl)cc1)c1cc2cc(F)ccc2[nH]1           7.30
2  O=C(NCCN1CCC2(CC1)C(=O)NCN2c1cccc(F)c1)c1cc2cc(F)ccc2[nH]1           7.60

Dear colleague, I am looking for the recorded pIC50 of the following molecule: C[C@@H](CN1CCC2(CC1)C(=O)NCN2c1cccc(F)c1)NC(=O)c1ccc2ccccc2c1
7.22

Now consider O=C(NCCN1CCC2(CC1)C(=O)NCN2c1cccc(F)c1)c1ccc(F)cc1 .
5.17

Now consider O=C(NCCN1CCC2(CC1)C(=O)NCN2c1ccc(F)cc1)c1ccc(F)cc1 .
6.21

Now consider O=C(NCCN1CCC2(CC1)C(=O)NCN2c1cccc(Cl)c1)c1cnc2ccccc2c1 .
6.78

Now consider O=C(NCCN1CCC2(CC1)C(=O)NCN2c1cccc(Cl)c1)c1ccc(F)cc1 .
7.15

====

The reader will find reported Selectivity ratio values listed item by item below.
Organism: Homo sapiens
assayMethodText: Selectivity ratio of IC50 for human PLD1 to IC50 for human GST-tagged PLD2A
Lab note: record just the number, no unit beside it.

> print(dat)
                                 smilescode     reportedmetric  valuereported
1  O=C(NCCN1CCC2(CC1)C(=O)NCN2c1ccc(Cl)cc1)c1ccc2ccccc2c1  Selectivity ratio            3.5
2  O=C(NCCN1CCC2(CC1)C(=O)NCN2c1cccc(Cl)c1)c1ccc2ccccc2c1  Selectivity ratio              4
3  O=C(NCCN1CCC2(CC1)C(=O)NCN2c1ccc(Br)cc1)c1ccc2ccccc2c1  Selectivity ratio             17
4  O=C(NCCN1CCC2(CC1)C(=O)NCN2c1ccc(F)cc1)c1ccc(F)cc1  Selectivity ratio             23
5  O=C(NCCN1CCC2(CC1)C(=O)NCN2c1ccc(F)c(F)c1)c1ccc(F)cc1  Selectivity ratio              9

Dear colleague, I am looking for the recorded Selectivity ratio of the following compound: O=C(NCCN1CCC2(CC1)C(=O)NCN2c1cccc(F)c1)c1cc2cc(F)ccc2[nH]1
8

Now consider O=C(NCCN1CCC2(CC1)C(=O)NCN2c1cccc(Cl)c1)c1cnc2ccccc2c1 .
5

Now consider O=C(NCCN1CCC2(CC1)C(=O)NCN2c1ccc(F)cc1)c1cc2cc(F)ccc2[nH]1 .
9

Now consider O=C(NCCN1CCC2(CC1)C(=O)NCN2c1cccc(Cl)c1)c1cc2cc(F)ccc2[nH]1 .
3.4

Now consider O=C(NCCN1CCC2(CC1)C(=O)NCN2c1ccc(F)c(F)c1)c1cnc2ccccc2c1 .
30
